Tested on: Cortical neurone
assay_details: Neuroplasticity effect in Wistar rat brain cortical neuron assessed as neurite outgrowth by measuring increase in neurite number at <=10 uM incubated for 72 hrs by DAPI staining based imaging analysis
Format: functional, cell-based
Active and inactive are the calls of the source. The rule behind the calls is not given here.
Outcome field: choose from 1 (yes) for active, 0 (no) for inactive

Input: What did the test return for "Fc1cccc2oc3c(c12)CCN(C1CCC1)CC3" ?
Output: 1 (yes)

Input: Another compound to check: "COc1cccc2oc3c(c12)CCNCC3"
Output: 0 (no)

Input: Another compound to check: "Fc1cccc2oc3c(c12)CN(CC(F)(F)F)CCC3"
Output: 1 (yes)

Input: Another compound to check: "FC(F)(F)CN1CCc2sc3ccccc3c2CC1"
Output: 0 (no)

###

Tested on: Cortical neurone
assay_details: Neuroplasticity effect in Wistar rat brain cortical neuron assessed as neurite outgrowth by measuring increase in neurite number at <=10 uM incubated for 72 hrs by DAPI staining based imaging analysis
Assay type: functional, cell-based
Activity calls are given as the source filed them. No cut-off for these calls is given here.
Outcome field: choose from active, inactive

These solved cases illustrate the format of a correct answer.
CN1CCc2oc3cccc(F)c3c2CC1 :: inactive
CN1CCCc2oc3cccc(F)c3c2C1 :: active
COc1cccc2oc3c(c12)CN(C1CCC1)CCC3 :: inactive
COc1ccc2c3c(sc2c1)CCNCC3 :: active
COc1ccc2c3c(oc2c1)CCCN(C)C3 :: active
Fc1cccc2oc3c(c12)CN(C1CCC1)CCC3 :: active
COc1cccc2oc3c(c12)CCN(C1CCC1)CC3 :: active
COc1ccc2c3c(oc2c1)CCCN(C1CCC1)C3 :: active
COc1ccc2c3c(oc2c1)CCCN(CC(F)(F)F)C3 :: active
Fc1ccc2c3c(oc2c1)CCCNC3 :: active

With those in mind, consider the next molecule.
Input: What did the test return for "FC(F)(F)Oc1cccc2sc3c(c12)CCN(C1CCC1)CC3" ?
Output: active

These data points were gathered from ChEMBL document CHEMBL5584282.
